biological target: rat NaPi-2b (Rattus norvegicus, UniProt Q9JJ09); test: Sodium-dependent phosphate uptake of Xenopus oocytes which expressed NaPi-2b (32P); details: Xenopus oocytes expressing rat NaPi-2b, 32P radioactive phosphorus; read-out: IC50 (phosphate uptake inhibitory activity)
Sequence (Q9JJ09 whole entry): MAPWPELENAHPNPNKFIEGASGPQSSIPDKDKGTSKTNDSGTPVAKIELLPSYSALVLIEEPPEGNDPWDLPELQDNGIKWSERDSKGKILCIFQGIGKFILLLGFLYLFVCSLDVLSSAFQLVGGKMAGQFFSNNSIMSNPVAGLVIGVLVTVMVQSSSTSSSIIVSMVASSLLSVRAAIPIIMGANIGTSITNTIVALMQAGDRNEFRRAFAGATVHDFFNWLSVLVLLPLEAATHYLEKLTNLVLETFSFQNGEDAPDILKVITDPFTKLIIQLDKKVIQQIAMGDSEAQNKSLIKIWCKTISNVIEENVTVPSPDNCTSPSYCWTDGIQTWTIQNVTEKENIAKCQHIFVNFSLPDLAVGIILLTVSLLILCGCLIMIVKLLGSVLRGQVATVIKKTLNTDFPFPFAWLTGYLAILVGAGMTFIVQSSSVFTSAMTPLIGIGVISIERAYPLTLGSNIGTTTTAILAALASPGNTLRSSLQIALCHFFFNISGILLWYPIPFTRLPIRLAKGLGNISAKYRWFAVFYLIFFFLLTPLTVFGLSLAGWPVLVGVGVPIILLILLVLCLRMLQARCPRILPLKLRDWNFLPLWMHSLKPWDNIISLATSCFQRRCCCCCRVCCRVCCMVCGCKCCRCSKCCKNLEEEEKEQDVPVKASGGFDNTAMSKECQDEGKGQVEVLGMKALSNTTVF
So I've got a bunch of compounds here, and I need their pIC50 values.
Conceptually, pIC50 converts a concentration in mol/L into minus its log10.

Incoming: Quick one: pIC50 of CCN(CC)CCN(C)Cc1cccc(C(=O)Nc2ccc(N3CCCCC3)cc2C(=O)N/N=C/c2ccc(F)cc2)c1 [Compound 860] ?
Outgoing: 6.19

Incoming: Quick one: pIC50 of CCN(CC)CCN(C)Cc1cccc(C(=O)Nc2ccc(OCCCCF)cc2C(=O)N/N=C/c2ccc(OC)cc2)c1 [Compound 1061] ?
Outgoing: 5.70

Incoming: Quick one: pIC50 of Cc1cccc(/C=N/NC(=O)c2cc(Br)ccc2NC(=O)c2ccc(CN(CC(C)O)CC(C)O)cc2)c1 (stereo not drawn) [Compound 718] ?
Outgoing: 5.16

Incoming: Quick one: pIC50 of CCN(CC)CCN(C)Cc1cccc(C(=O)Nc2ccc(Cl)cc2C(=O)N/N=C/c2cccc(F)c2)c1 [Compound 379] ?
Outgoing: 6.01

Incoming: Quick one: pIC50 of CCN(CC)CCN(C)Cc1cccc(C(=O)Nc2ccc(Cl)cc2C(=O)N/N=C/c2ccc(C)c(C)c2)c1 [Compound 383] ?
Outgoing: 5.70

Incoming: Quick one: pIC50 of CN(C)CCn1nnnc1SCc1cccc(C(=O)Nc2ccc(Cl)cc2C(=O)N/N=C/c2ccc(Cl)c(C(F)(F)F)c2)c1 [Compound 467] ?
Outgoing: 5.10

Incoming: Quick one: pIC50 of COc1ccc(C(=O)Nc2ccc(Cl)cc2C(=O)N/N=C/c2cccc(C)c2)cc1OC [Compound 67] ?
Outgoing: 6.19

Incoming: Quick one: pIC50 of Cc1ccc(/C=N/NC(=O)c2ccccc2NC(=O)c2ccncc2)cc1C [Compound 138] ?
Outgoing: 5.35

Incoming: Quick one: pIC50 of CCOc1ccc(C(=O)Nc2ccc(Br)cc2C(=O)N/N=C/c2ccc(F)cc2)cc1 [Compound 502] ?
Outgoing: 4.80

Incoming: Quick one: pIC50 of COCCOc1cc(NC(=O)c2cccc(CSCC(O)CO)c2)c(C(=O)N/N=C/c2cccc(F)c2)cc1OCCOC (stereo not drawn) [Compound 1013] ?
Outgoing: 5.05

Incoming: Quick one: pIC50 of COc1ccc(C(=O)Nc2cc(Cl)ccc2C(=O)N/N=C/c2cccc(O)c2)cc1OC [Compound 75] ?
Outgoing: 4.89

Incoming: Quick one: pIC50 of O=C(Nc1ccccc1C(=O)N/N=C/c1ccc(Cl)cc1)c1cccc(OC(F)(F)F)c1 [Compound 123] ?
Outgoing: 5.42

Incoming: Quick one: pIC50 of CCN(CC)CCN(C)Cc1cccc(C(=O)Nc2ccc(OCCOCCOC)cc2C(=O)N/N=C/c2ccc(C)cc2)c1 [Compound 1034] ?
Outgoing: 4.76

---

So I've got a bunch of compounds here, and I need their IC50 values.
molecular target: rat NaPi-2b (Rattus norvegicus); experiment: Sodium-dependent phosphate uptake of Xenopus oocytes which expressed NaPi-2b (32P); conditions: Xenopus oocytes expressing rat NaPi-2b, 32P radioactive phosphorus; read-out: IC50 (phosphate uptake inhibitory activity)
Value expressed in µM; do not type the unit.

Incoming: Quick one: IC50 of CC(O)CN(Cc1cccc(C(=O)Nc2ccc(N3CCCC3=O)cc2C(=O)N/N=C/c2ccc(Cl)c(C(F)(F)F)c2)c1)CC(C)O (stereo not shown) ?
Outgoing: 19.4

Incoming: Quick one: IC50 of COc1ccc(/C=N/NC(=O)c2cscc2NC(=O)c2cccc(CN3CCN(CCO)CC3)c2)cc1 ?
Outgoing: 22.1

Incoming: Quick one: IC50 of COc1ccc(C(=O)Nc2ccccc2C(=O)N/N=C/c2ccc(Cl)c(C(F)(F)F)c2)cc1OC ?
Outgoing: 2.43

Incoming: Quick one: IC50 of COc1ccc(NC(=O)c2ccc(OC)c(OC)c2)c(C(=O)N/N=C/c2ccc(C)c(C)c2)c1 ?
Outgoing: 3.82

Incoming: Quick one: IC50 of O=C(Nc1ccc(Cl)cc1C(=O)N/N=C/c1cccc(O)c1)c1cccc(CN2CCC(N3CCCCC3)CC2)c1 ?
Outgoing: 21
